FACS signal at 8 nM: recorded values
experimentalTarget: human Claudin-6 (CLDN6) (human) (UniProt P56747)
measurementDescription: FACS, limiting dilution, ARK2 cells
No unit in the answer, please; the number alone is enough.

- binder: "AB S11 (antibody, V domains shown) VH: QVQLVQSGAEVKKPGASVKMSCKASGYTFTTYTIHWVRQAPGQGLEWIGVINPSSGYTEYAQKFQGRVTLTADKSTSTVYMELSSLRSEDTAVYFCANGDYYVAYWGQGTLVTVSS VL: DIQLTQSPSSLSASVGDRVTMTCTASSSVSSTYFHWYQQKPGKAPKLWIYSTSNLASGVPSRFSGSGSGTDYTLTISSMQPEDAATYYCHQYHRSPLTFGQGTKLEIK"
  FACS signal at 8 nM: 20200

What FACS signal at 8 nM value was documented for this binder, AB S10 (antibody, V domains shown) VH: QVQLVQSGAEVKKPGASVKMSCKASGYTFTTYTMHWVRQAPGQGLEWIGFINPSSGYTEYAQKFQGRVTLTADKSTSTVYMELSSLRSEDTAVYYCANGDYYVGYWGQGTLVTVSS VL: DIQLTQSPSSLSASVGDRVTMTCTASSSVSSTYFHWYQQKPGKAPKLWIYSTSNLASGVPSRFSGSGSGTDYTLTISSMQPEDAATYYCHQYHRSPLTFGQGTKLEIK ?
27500
